The origin of these recorded values is patent US20250136677A1.

Biological target: T1, wildtype feline IL-31 protein (Feline_IL31_wildtype) (feline); note: test concentration or dose not given here
T1 chain: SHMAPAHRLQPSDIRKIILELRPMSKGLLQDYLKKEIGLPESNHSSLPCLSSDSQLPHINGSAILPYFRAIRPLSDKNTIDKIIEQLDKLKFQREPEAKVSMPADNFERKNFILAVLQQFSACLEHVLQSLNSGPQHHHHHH
Assay: cell-based or functional assay
Assign % Inhibition Relative to Parent (pSTAT, FCWF-4 cells) to each entry below.
Provide only the numeric value, understood in %.

Q. Provide only the value of recorded % Inhibition Relative to Parent (pSTAT, FCWF-4 cells) for A15 (antibody, V domains shown) VH: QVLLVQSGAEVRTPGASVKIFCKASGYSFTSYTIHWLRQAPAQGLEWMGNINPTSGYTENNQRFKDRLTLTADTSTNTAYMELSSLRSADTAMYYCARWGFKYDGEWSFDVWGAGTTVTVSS VL: EIQMTQSPSSLSASPGDRVTITCRASQGISIWLSWYQQKPGNIPKVLINAASNLHIGVPSRFSGSGSGTDFTLTISSLEPEDAATYYCLQSQTYPLTFGGGTKLEIK
A. 34.1

Q. Find the measured % Inhibition Relative to Parent (pSTAT, FCWF-4 cells) of A13 (antibody, V domains shown) VH: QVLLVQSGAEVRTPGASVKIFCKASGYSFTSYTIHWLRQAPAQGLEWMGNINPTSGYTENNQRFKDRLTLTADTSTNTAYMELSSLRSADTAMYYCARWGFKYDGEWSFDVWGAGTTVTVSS VL: EIQMTQSPSSLSASPGDRVTITCRASQGISIALSWYQQKPGNIPKVLINKASNLHIGVPSRFSGSGSGTDFTLTISSLEPEDAATYYCLQSQTYPLTFGGGTKLEIK and report it.
A. 4.4

Q. For the binder A16 (antibody, V domains shown) VH: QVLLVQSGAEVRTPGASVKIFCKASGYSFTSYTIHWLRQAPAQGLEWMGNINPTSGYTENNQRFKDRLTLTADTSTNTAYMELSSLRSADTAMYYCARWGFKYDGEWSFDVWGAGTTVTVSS VL: EIQMTQSPSSLSASPGDRVTITCRASQGISIWLSWYQQKPGNIPKVLINKAANLHIGVPSRFSGSGSGTDFTLTISSLEPEDAATYYCLQSQTYPLTFGGGTKLEIK , report % Inhibition Relative to Parent (pSTAT, FCWF-4 cells).
A. 69.3

Q. // Input: A20 (antibody, V domains shown) VH: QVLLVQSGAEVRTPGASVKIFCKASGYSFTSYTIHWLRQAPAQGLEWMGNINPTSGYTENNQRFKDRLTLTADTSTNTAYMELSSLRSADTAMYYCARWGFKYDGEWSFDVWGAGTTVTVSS VL: EIQMTQSPSSLSASPGDRVTITCRASQGISIWLSWYQQKPGNIPKVLINKASNLHAGVPSRFSGSGSGTDFTLTISSLEPEDAATYYCLQSQTYPLTFGGGTKLEIK . Output its % Inhibition Relative to Parent (pSTAT, FCWF-4 cells) only.
A. 29

Q. Supply recorded % Inhibition Relative to Parent (pSTAT, FCWF-4 cells) for A24 (antibody, V domains shown) VH: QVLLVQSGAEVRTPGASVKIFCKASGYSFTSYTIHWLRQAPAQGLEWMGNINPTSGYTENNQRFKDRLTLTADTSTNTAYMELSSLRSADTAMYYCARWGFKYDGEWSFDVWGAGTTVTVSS VL: EIQMTQSPSSLSASPGDRVTITCRASQGISIWLSWYQQKPGNIPKVLINKASNLHIGVPSRFSGSGSGTDFTLTISSLEPEDAATYYCLQSQAYPLTFGGGTKLEIK here.
A. 56.7
